test system: OCI-AML2; assay: cell viability relative to vehicle control; higher = less cytotoxic; settings: 10 µM; SRSF2 genotype: wt/wt;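 also: after 48 h exposure read by CellTiter-Glo luminescence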
Where a name gives a salt, the structure may show the parent alone.
observation.type: cell viability (%)
Answer format: numeric, % implied, no suffix.

Incoming: Reported cell viability, compound CC/C=C(\C(=O)N[C@@H]1C(=O)N2C(C(=O)OCOC(=O)C(C)(C)C)=C(COC(N)=O)CS[C@H]12)c1csc(N)n1 [Cefcapene Pivoxil Hydrochloride] : ____
Outgoing: 106

Incoming: Reported cell viability, compound C[C@@H]1CC[C@@]2(OC1)O[C@H]1C[C@H]3[C@@H]4CC=C5C[C@@H](O[C@@H]6O[C@H](CO)[C@@H](O[C@@H]7O[C@@H](CO)[C@H](O)[C@H]7O)[C@H](O)[C@H]6O[C@@H]6O[C@@H](C)[C@H](O)[C@@H](O)[C@H]6O)CC[C@]5(C)[C@H]4CC[C@]3(C)[C@H]1[C@@H]2C : ____
Outgoing: 0.36

Incoming: Reported cell viability, compound CCCCC(=O)O[C@]1(C(=O)CO)[C@@H](C)C[C@H]2[C@@H]3CCC4=CC(=O)C=C[C@]4(C)[C@@]3(F)[C@@H](O)C[C@@]21C [Betamethasone valerate (Betnovate)] : ____
Outgoing: 116

Incoming: Reported cell viability, compound CC(=O)c1ccc(O)c(C(=O)O)c1 : ____
Outgoing: 105

Incoming: Reported cell viability, compound Cc1nc(C#Cc2ccnc(Cl)c2)c(C)n1-c1ccc(OC(F)(F)F)cc1 : ____
Outgoing: 68.7

Incoming: Reported cell viability, compound C=CC(=O)N[C@H]1CCOC[C@H]1Nc1ncc2cc(-c3c(Cl)c(OC)cc(OC)c3Cl)ccc2n1 : ____
Outgoing: 72.7

* * *

Would you mind telling me the reported cell viability of each entry?
test system: MARIMO; experiment: cell viability relative to vehicle control; higher = less cytotoxic; details: 10 µM; SRSF2 genotype: SRSF2 P95H/wt
Answer format: numeric, % implied, no suffix.

Incoming: Reported cell viability, compound O=C(NO)c1ccc(CC(=O)N(CCO)c2ccccc2)cc1 : ____
Outgoing: 78.9

Incoming: Reported cell viability, compound CC(C)OC(=O)C1=CN(C(=O)c2ccc(F)c(F)c2)CC(C)(C)c2c1[nH]c1ccccc21 [Turofexorate Isopropyl (XL335)] : ____
Outgoing: 96.7

Incoming: Reported cell viability, compound Cc1cc(OCc2nnc(SC3CCCC3)n2-c2cccnc2)ccc1-c1ccc(S(C)(=O)=O)cc1 : ____
Outgoing: 0.85

Incoming: Reported cell viability, compound COc1cc(C(=O)O)ccc1O : ____
Outgoing: 98.9

Incoming: Reported cell viability, compound CNC(=O)c1ccc(-c2cnc3ncc(Cc4ccc5ncccc5c4)n3n2)cc1F : ____
Outgoing: 107

Incoming: Reported cell viability, compound CCn1cc(C(=O)O)c(=O)c2c(N)c(F)c(NC3CCCCC3)cc21 : ____
Outgoing: 94.2

Incoming: Reported cell viability, compound CC(C(=O)O)c1ccc2c(c1)CC(=O)c1ccccc1S2 (stereo not given) : ____
Outgoing: 96.8

Incoming: Reported cell viability, compound Clc1ncnc2nc[nH]c12 : ____
Outgoing: 92.3

Incoming: Reported cell viability, compound O=c1cc(-c2ccccc2)oc2cc(O)cc(O)c12 : ____
Outgoing: 93

Incoming: Reported cell viability, compound CCOC(=O)n1ccn(C)c1=S : ____
Outgoing: 110

Values were extracted from the supplement of paper PMC10981050.
